TEST_TARGET: Dual specificity tyrosine-phosphorylation-regulated kinase 2 (Homo sapiens, UniProt Q92630)
Sequence (Q92630 whole entry): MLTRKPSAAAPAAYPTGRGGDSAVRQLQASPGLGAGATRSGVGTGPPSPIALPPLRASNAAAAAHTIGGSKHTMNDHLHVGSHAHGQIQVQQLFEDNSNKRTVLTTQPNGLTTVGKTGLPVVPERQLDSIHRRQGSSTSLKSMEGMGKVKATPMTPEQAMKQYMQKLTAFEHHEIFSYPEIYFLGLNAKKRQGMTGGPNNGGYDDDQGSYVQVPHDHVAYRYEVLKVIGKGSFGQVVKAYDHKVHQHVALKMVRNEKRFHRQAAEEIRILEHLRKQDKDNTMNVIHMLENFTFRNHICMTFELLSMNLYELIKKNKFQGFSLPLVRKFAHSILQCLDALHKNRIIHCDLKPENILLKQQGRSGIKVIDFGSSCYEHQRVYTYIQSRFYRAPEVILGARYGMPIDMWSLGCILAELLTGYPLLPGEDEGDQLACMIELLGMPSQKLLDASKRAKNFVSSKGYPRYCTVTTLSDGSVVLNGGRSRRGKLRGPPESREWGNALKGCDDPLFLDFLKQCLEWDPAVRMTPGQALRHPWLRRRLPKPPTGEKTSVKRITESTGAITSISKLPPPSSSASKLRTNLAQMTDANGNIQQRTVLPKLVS
ASSAY_NOTES: Selectivity interaction (NanoBRET assay (HEK293T cells)) EUB0000009b DYRK2
RESULT_TYPE: Ki

input: Bench note: what Ki did `Cn1cc(-c2ccc3occ(-c4ccccc4-c4ccccc4)c3n2)cn1` show?
output: > 10 µM

* * *

TEST_TARGET: Sodium channel protein type 2 subunit alpha (Homo sapiens)
Sequence (Q99250 whole entry): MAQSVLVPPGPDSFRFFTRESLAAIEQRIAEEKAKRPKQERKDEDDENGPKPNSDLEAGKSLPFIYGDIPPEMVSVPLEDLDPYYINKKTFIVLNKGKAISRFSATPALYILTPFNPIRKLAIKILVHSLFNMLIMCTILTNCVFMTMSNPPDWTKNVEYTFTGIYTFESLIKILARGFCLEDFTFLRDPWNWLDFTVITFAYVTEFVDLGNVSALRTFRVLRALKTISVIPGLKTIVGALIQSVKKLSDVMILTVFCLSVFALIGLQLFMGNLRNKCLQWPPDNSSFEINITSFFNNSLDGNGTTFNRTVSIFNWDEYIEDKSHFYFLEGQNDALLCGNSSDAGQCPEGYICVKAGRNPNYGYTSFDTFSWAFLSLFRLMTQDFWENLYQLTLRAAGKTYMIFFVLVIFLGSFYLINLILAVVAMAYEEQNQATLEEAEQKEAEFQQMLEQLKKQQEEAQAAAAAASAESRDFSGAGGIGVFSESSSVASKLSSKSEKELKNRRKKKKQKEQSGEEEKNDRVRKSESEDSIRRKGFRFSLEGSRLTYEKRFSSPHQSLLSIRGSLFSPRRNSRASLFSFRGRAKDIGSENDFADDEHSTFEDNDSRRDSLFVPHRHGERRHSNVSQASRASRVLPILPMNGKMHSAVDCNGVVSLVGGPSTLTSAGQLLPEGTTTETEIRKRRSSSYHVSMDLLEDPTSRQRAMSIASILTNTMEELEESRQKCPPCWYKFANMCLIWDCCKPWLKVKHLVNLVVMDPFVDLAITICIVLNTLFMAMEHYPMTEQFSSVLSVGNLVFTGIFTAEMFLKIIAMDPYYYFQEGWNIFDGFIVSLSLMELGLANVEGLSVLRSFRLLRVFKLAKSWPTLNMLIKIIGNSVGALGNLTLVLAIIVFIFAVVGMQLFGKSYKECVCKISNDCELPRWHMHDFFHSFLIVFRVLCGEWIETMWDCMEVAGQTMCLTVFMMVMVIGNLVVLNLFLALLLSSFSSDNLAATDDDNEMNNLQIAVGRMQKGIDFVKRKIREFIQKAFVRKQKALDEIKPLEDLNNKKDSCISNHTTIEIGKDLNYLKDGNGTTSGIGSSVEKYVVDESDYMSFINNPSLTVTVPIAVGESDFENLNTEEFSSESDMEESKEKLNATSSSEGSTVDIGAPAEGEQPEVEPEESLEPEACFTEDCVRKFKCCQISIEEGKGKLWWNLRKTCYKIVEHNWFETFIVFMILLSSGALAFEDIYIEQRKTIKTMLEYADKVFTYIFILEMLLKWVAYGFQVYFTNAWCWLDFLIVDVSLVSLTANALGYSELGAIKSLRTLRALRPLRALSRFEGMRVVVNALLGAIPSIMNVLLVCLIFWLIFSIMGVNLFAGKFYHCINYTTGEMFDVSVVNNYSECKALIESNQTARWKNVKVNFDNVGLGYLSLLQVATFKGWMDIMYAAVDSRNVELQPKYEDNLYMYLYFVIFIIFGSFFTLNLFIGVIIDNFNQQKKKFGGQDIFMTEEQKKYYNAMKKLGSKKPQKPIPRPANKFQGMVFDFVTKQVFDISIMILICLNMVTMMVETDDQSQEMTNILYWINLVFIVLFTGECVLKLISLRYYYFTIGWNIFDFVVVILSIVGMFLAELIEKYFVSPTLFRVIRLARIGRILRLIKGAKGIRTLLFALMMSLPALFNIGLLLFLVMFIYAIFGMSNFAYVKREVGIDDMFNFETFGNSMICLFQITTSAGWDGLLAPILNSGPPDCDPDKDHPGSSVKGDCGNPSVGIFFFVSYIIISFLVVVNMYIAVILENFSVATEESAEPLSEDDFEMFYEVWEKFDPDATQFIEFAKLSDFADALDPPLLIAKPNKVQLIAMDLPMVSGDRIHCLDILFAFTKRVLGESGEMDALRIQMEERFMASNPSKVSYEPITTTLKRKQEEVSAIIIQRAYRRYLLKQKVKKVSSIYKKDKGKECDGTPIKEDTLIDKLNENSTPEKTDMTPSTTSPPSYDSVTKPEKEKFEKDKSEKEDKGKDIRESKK
ASSAY_NOTES: Selectivity interaction (CEREP panel (receptors, ion chanels, radiometric assay)) EUB0000192d SCN2A
RESULT_TYPE: pIC50
Note on pIC50: it is the negative log10 of concentration, concentration in mol/L.

input: Bench note: what pIC50 did `Cn1cc(CCn2cnc(-c3cnn(C)c3)c2-c2ccc(C#N)cc2)cn1` show?
output: 5.18
